hERG current change (%, negative = inhibition) at 10uM by entry:
# target or system: human ether-à-go-go-related gene (hERG) potassium channel (human, UniProt Q12809);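 also: peak tail current of the secondary pulse compared with the same well before compound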
# Sequence (Q12809 whole entry, looked up): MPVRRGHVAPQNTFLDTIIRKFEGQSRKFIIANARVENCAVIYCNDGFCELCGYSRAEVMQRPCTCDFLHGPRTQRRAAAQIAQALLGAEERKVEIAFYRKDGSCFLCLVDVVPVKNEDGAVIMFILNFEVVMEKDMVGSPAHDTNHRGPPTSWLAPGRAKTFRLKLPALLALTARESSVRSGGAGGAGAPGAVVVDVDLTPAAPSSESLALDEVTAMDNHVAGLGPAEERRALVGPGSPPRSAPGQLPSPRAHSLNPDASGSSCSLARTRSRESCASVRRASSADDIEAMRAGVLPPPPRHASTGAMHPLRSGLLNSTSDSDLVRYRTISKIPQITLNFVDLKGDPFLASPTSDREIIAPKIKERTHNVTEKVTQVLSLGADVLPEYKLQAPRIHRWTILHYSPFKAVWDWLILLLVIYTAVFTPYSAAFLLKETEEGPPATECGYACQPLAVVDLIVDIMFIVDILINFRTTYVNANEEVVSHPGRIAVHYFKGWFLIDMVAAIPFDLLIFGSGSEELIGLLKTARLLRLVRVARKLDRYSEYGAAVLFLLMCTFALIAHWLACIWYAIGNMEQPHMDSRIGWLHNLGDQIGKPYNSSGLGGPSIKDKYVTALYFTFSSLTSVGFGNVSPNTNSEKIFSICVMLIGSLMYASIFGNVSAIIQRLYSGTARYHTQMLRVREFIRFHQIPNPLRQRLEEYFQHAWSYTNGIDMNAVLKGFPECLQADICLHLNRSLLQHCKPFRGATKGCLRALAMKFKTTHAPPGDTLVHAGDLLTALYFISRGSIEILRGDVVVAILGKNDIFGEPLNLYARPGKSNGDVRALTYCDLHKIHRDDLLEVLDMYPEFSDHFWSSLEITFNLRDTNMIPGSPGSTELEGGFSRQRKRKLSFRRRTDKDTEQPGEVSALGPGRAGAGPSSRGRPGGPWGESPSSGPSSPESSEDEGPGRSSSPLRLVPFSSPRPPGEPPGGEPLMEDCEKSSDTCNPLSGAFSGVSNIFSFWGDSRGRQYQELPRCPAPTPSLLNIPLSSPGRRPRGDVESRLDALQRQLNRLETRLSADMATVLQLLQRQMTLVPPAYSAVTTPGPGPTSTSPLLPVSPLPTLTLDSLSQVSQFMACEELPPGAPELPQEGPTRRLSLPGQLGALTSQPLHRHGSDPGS
# measurement description: primary screen, population patch clamp on CHO cells stably expressing hERG; higher = less effect of the substance
Screen size: about 310,000 compounds; about 14,000 (4.5%) showed an effect of 50% or more. Effects have a minus sign here. The list comes from a sample in which strong results are over-represented; it also holds close analogues and randomly drawn compounds.
Report as a plain number; the unit % is understood.

Known results for molecules:
molecule	reported measurement
CC(=O)N/C(=C\c1ccccc1)C(=O)OCc1ccc(C)cc1	-19.9
Cc1ccc(C(=O)N/C(=C\c2ccccc2)C(=O)OCc2ccccc2)cc1	-50.7
O=C(NC(Cc1ccccc1)C(=O)O)/C(=C\c1ccc(F)cc1)NC(=O)c1ccccc1 (stereo not drawn)	11.1
O=C(CNC(=O)/C(=C/c1ccccc1)NC(=O)c1ccc(Br)cc1)OCc1ccccc1	-64

**Query** Could you tell me which hERG current change (%, negative = inhibition) at 10uM is on file for CCCCC(C(=O)O)C(C)CC(=O)NNC(=O)c1ccco1 (stereo not drawn) ?
**Result** 13.2

**Query** How about this molecule: CCOC(=O)CNC(=O)/C(=C\c1ccc(F)cc1)NC(=O)c1ccccc1
**Result** -26.4

**Query** How about this molecule: O=C(CNC(=O)/C(=C\c1ccccc1)NC(=O)c1ccc(Br)cc1)OCc1ccccc1
**Result** -69.1

**Query** How about this molecule: O=C(CNC(=O)/C(=C\c1ccc(F)cc1)NC(=O)c1ccccc1)OCc1ccccc1
**Result** -80.7

**Query** How about this molecule: O=C(Nc1ccc(C(=O)O)cc1)/C(=C\c1ccccc1)NC(=O)c1ccc(Br)cc1
**Result** 7.33

###

# target or system: human ether-à-go-go-related gene (hERG) potassium channel (human, UniProt Q12809);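 also: peak tail current of the secondary pulse compared with the same well before compound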
# measurement description: primary screen, population patch clamp on CHO cells stably expressing hERG; higher = less effect of the substance
Hit rate of the full screen: of about 310,000 compounds, about 14,000 (4.5%) showed an effect of 50% or more. The effect is printed as a negative number. The full list was thinned out, with strong results kept by preference.
hERG current change (%, negative = inhibition) at 10uM by entry:
Report as a plain number; the unit % is understood.

Known results for molecules:
molecule	reported measurement
Cc1ccc(NC2c3ncccc3C(=O)N2C2CCCCC2)cc1 (centres unmarked)	5.93
O=C(CN1CCOCC1)Nc1cc(Cl)ccc1Cl	-32.5
O=C(NC(=S)N(Cc1ccccc1)Cc1ccccc1)c1ccccc1F	18.5
O=C(Nc1ccccn1)c1cccc(S(=O)(=O)N2CCCC2)c1	9.44
O=C(CN1CCN(C(=O)C2CCCO2)CC1)Nc1cc(Cl)ccc1Cl (centres unmarked)	-61.9

**Query** // lookup hERG current change (%, negative = inhibition) at 10uM | system=human ether-à-go-go-related gene (hERG) potassium channel (human, UniProt Q12809) | key= COC(=O)c1cc(CSc2ncnc3sccc23)oc1C;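 also: peak tail current of the secondary pulse compared with the same well before compound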
**Result** 16.6

**Query** How about this molecule: CC(C)NC(=O)CSc1ncccc1-c1nc2ccccc2[nH]1
**Result** -17.1

**Query** How about this molecule: CCn1cc(CN2CCC(n3nccc3NC(=O)CCOc3ccccc3)CC2)cn1
**Result** -12.9

**Query** How about this molecule: O=C(CCOc1ccccc1)Nc1ccnn1C1CCN(Cc2ccc(F)cc2)CC1
**Result** -59.1

**Query** How about this molecule: Cc1ccc(Cl)cc1NC(=O)CN1CCOCC1
**Result** -0.857

**Query** How about this molecule: Cc1ccc(Cl)cc1NC(=O)CN1CCN(S(=O)(=O)N2CCC(C)CC2)CC1
**Result** -41.3

**Query** How about this molecule: COc1ccc(Cl)cc1NC(=O)CN1CCN(C(=O)N2CCOCC2)CC1
**Result** -38.8

**Query** How about this molecule: COc1ccc(CN2CCC(n3nccc3NC(=O)CCOc3ccccc3)CC2)cc1C
**Result** -68.7

All figures here come from paper PMC4336329.
